# credit: paper PMC12631574

Recorded kinact/KI for the following compounds
Target: tissue transglutaminase (TG2), C-terminal His-tag TG2 (Homo sapiens, UniProt P21980)
Construct: host or cells: Novagen Rosetta 2 (DE3) E. coli
Sequence (P21980 1-687): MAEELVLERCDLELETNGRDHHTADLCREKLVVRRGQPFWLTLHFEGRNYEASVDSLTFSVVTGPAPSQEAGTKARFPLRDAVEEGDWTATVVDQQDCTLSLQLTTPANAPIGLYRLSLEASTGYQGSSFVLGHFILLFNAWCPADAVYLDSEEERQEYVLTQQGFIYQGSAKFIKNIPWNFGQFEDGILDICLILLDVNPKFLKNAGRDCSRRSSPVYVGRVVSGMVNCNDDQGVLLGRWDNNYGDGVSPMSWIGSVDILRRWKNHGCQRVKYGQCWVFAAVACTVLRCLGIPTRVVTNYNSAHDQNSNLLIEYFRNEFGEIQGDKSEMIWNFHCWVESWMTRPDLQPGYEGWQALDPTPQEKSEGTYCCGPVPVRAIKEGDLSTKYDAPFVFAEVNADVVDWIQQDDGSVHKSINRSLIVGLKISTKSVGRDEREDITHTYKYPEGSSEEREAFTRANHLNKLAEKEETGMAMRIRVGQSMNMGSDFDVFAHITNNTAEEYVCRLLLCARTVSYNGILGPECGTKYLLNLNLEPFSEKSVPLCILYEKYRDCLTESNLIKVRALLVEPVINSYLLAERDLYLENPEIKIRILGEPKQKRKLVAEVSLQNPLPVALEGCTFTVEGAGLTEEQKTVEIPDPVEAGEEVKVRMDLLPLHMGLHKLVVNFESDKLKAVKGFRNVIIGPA
Assay: continuous AL5 hydrolysis assay of irreversible TG2 inhibition (kobs vs [I]/α)
Format: biochemical
Details: supplement, kinetics data and fitting

Consider the worked cases shown below.
{"columns": ["COMPOUND", "TARGET_UNDER_TEST", "kinact/KI"],
 "data": [
  ["C=CC(=O)NCC(=O)N1CCN(C(=O)C23CC4CC(CC(I)(C4)C2)C3)CC1 [Compound 29]", "tissue transglutaminase (TG2), C-terminal His-tag TG2 (Homo sapiens, UniProt P21980)", "1195 ± 112 × 103 M-1min-1"],
  ["C=CC(=O)NCC(=O)N1CCN(C(=O)C2CC2)CC1 [Compound 6a]", "tissue transglutaminase (TG2), C-terminal His-tag TG2 (Homo sapiens, UniProt P21980)", "15.2 ± 4.6 × 103 M-1min-1"],
  ["C=CC(=O)NCC(=O)N1CCN(S(=O)(=O)C23CC4CC(CC(C4)C2)C3)CC1 [Compound 38]", "tissue transglutaminase (TG2), C-terminal His-tag TG2 (Homo sapiens, UniProt P21980)", "129 ± 36 × 103 M-1min-1"]
]}

So, C=CC(=O)NCC(=O)N1CCN(C(=O)c2cccc(-c3ccccc3C)c2)CC1 [Compound 21d] ? Its kinact/KI was 636 ± 58 × 103 M-1min-1

So, C=CC(=O)NCC(=O)N1CCN(C(=O)c2ccccc2Oc2ccccc2)CC1 [Compound 22b] ? Its kinact/KI was 94.8 ± 9.0 × 103 M-1min-1

So, C=CC(=O)NCC(=O)N1CCN(C(=O)c2cccc(Cc3ccccc3)c2)CC1 [Compound 22d] ? Its kinact/KI was 114 ± 38 × 103 M-1min-1
